Test system: Spodoptera littoralis
Experiment: Spodoptera littoralis (Egyptian cotton leaf worm) cotton leaf disc spray test, L1 larvae
Type: in vivo
Details: foliar, 72 h, application rate of 200 ppm, 3 days after infestation, in comparison to untreated samples, read-out: control (at least one of mortality, anti-feedant effect, and growth inhibition)
Could you please report measured mortality at 200 ppm for the items listed next?

Completed entries (count: 3):
CC(C)c1ccccc1NC(=O)N/N=C/c1ccc(O/N=C2\CCc3cc(OC(F)(F)F)ccc32)cc1 ≥ 80%
C/C(=N\Nc1ccc(/C=N/NC(=O)Nc2c(C)cccc2C)cc1)c1ccc(OC(F)F)cc1 ≥ 80%
C/C(=N\Nc1ccc(/C=N/NC(=S)Nc2c(C)cccc2C)cc1)c1ccc(C(F)(F)F)cc1 ≥ 80%

Proceeding to the next compound to report its mortality at 200 ppm.
Would you mind telling me what mortality at 200 ppm value was observed for `Cc1cccc(C)c1NC(=S)N/N=C/c1ccc(N/N=C2\CCc3cc(OC(F)(F)F)ccc32)cc1` ?
≥ 80%
